This collection of values is drawn from PubChem BioAssay (NCI).

- Tested on: MOLT-4 leukemia
- method: NCI-60 one-dose screen, 48 h
- conditions_used: 10 µM unless noted
About 83,000 compounds went through this panel and 20% of them were active in at least one assay; those are over-represented in the sample as a whole. The source made the active and inactive calls. Rule for the calls: active = growth percent below 10; inactive = the rest.
Could you please pick one outcome from this set? YES (active), NO (inactive)

A selection of reference data follows.
COc1ccc2c(c1)c(-c1nc(-c3c[nH]c4ncccc34)cs1)cn2CCCCN1CCCCC1: YES
CC(=O)O[C@H](C[C@H](C(C)C)N(C)C(=O)[C@@H](NC(=O)[C@H]1CCCCN1C)C(C)(C)C)c1nc(C(=O)N[C@@H](Cc2ccccc2)C[C@H](C)C(=O)O)cs1: YES
O[C@H](CN1CC1)[C@@H](O)CN1CC1: NO

Would you kindly look at the next entry?
**Q:** Query: recorded result category for O=C1NC(=O)C(=Cc2cn(CCCCCCn3c4ccccc4c(=O)c4ccccc43)c3ccccc23)C(=O)N1 in this test
**A:** NO

###

- Tested on: HOP-62 NSCLC
- method: NCI-60 one-dose screen, 48 h
- conditions_used: 10 µM unless noted
- Experimental: Growth inhibition of the HOP-62 human Non-Small Cell Lung tumor cell line is measured as a screen for anti-cancer activity. Cells are grown in 96 well plates and exposed to the test compound for 48 hours. Compounds are tested at a single concentration, which is 10^-5 M for most compounds. The reported endpoint is percent growth (GI% or GIPRCNT), where numbers from 0 - 100% represent growth inhibition, and numbers from -100% - 0 represent cell death. […]
Compounds without any hit were thinned out: in the full panel of roughly 83,000, 20% have a hit. The source made the active and inactive calls. How the source made its calls: active means growth percent below 10; inactive means the rest.
Pick from y (active), n (inactive) when you respond.

These recorded examples may help you get a feel for the data.
COC(=O)[C@@H](C)C[C@H](Cc1ccccc1)NC(=O)c1nc([C@@H](C[C@H](C(C)C)N(C)C(=O)[C@@H](NC(=O)[C@H]2C[C@H](O)CCN2C)C(C)C)OC(C)=O)sc1C(C)C: y
CC1=C2[C@@H](CC1)[C@]1(C)O[C@@](C(C)C)(C[C@H]1O)[C@H]2OC(=O)C1CC1c1ccccc1 (stereo partly specified): n
C/C(=C\c1ccn(-c2ccccc2N)n1)[C@@H]1C[C@@H]2O[C@]2(C)CCC[C@H](C)[C@H](O)[C@@H](C)C(=O)C(C)(C)[C@@H](O)CC(=O)O1: n

**Q:** What outcome does the record of this test show for O=C(CC1(O)C(=O)N(Cc2ccccc2)c2ccc(Cl)cc21)c1ccc(C(=O)NCC2CCC3(CC2)OOC2(CCCCC2)OO3)cc1 (stereo unspecified) ?
**A:** y

**Q:** Could you kindly confirm the outcome this assay logged for CC(=O)[C@H]1CC[C@H]2[C@@H]3CC[C@H]4C[C@H](N)CC[C@]4(C)[C@H]3CC[C@]12C ?
**A:** n

**Q:** Hi team, can someone confirm the assay call for CC(=O)O[C@H]1C(=O)[C@@]2(C)[C@H]([C@H](OC(=O)c3ccccc3)[C@]3(O)C[C@H](OC(=O)[C@H](OC(=O)OCC4COC(C)(C)O4)[C@@H](NC(=O)c4ccccc4)c4ccccc4)C(C)=C1C3(C)C)[C@]1(OC(C)=O)CO[C@@H]1C[C@@H]2O (stereo partly specified) ?
**A:** n

###

- System: A549/ATCC NSCLC
- method: NCI-60 one-dose screen, 48 h (100 = growth as untreated, 0 = no growth, -100 = all killed)
- conditions_used: 10 µM unless noted
The panel holds about 83,000 compounds, 20% with a hit somewhere; the sample as a whole holds those more often.
# t = growth below 80% (exclusive); f = growth at/above 80%

**Q:** is_below(growth, 80%) for COC(=O)C1OC(Oc2ccc(N(CCCl)CCCl)cc2)C(OC(C)=O)C(OC(C)=O)C1OC(C)=O (stereo not given) ?
**A:** t

**Q:** Is growth strictly under 80% for the entry CCOC(=O)CCC(NC(=O)C(Cc1ccc(N(CCCl)CCCl)cc1)NC=O)C(=O)OCC (stereo not given) ?
**A:** t

**Q:** Find out if reported growth for O=C(O)C(Cl)(Cl)C(F)(F)F is less than 80%
**A:** f

**Q:** Check if growth falls below 80% for COc1cc(C=Nc2cc(Cl)cc(Cl)c2)ccc1N(CCCl)CCCl .
**A:** f

**Q:** Field: below-cutoff. Rule: recorded growth strictly less than 80%. Subject: CS(=O)(=O)CCN1CC2CCCC(C2)C1
**A:** f

**Q:** # check: growth < 80% for Nc1c(F)cc(-c2nc3cc(F)ccc3[se]2)cc1F
**A:** t

**Q:** Determine whether this molecule shows growth lower than 80% (ties excluded): NC(=O)c1c(Br)n(C2OC(CO)C(O)C2O)c2ncnc(N)c12 (stereo not given)
**A:** t

**Q:** Below 80% on growth? Entry COc1cc2c(c(OC)c1OC)-c1ccc([O-])c(=O)cc1[C@@H](NC(C)=O)CC2.COc1cc2c(c(OC)c1OC)-c1ccc([O-])c(=O)cc1[C@@H](NC(C)=O)CC2.[Cu+2]
**A:** t

**Q:** Strictly below 80%: is that where growth of N#C[Se]CCN1C(=O)c2ccccc2C1=O sits?
**A:** t

###

- System: HOP-62 NSCLC
- method: NCI-60 one-dose screen, 48 h (100 = growth as untreated, 0 = no growth, -100 = all killed)
- conditions_used: 10 µM unless noted
The panel holds about 83,000 compounds, 20% with a hit somewhere; the sample as a whole holds those more often.
attribute_measured: growth (%)
Answer format: numeric, % implied, no suffix.

Use these answered entries as a reference point.
Cc1ccc(S(=O)(=O)F)cc1C(=O)O: 97.7
Cc1cc(C)c(CBr)c(C)c1: 104

**Q:** What growth value was documented for this compound, Cc1c2cc(Cl)c3ccccc3c2c[n+]2ccccc12 ?
**A:** 12.3

**Q:** Could you tell me which growth is on file for N#C[Se]Cc1cc(-c2ccccc2)n(-c2ccc(S(N)(=O)=O)cc2)n1 ?
**A:** -87.3

**Q:** For the compound CCOC(=S)S[C@H]1C[C@@H]2[C@H](CC[C@]3(C)C(=O)CC[C@@H]23)[C@@]2(C)CCC(=O)C=C12 , what growth is on record?
**A:** 112

**Q:** Param item = COC1OC(CO)C(O)C(O)[CH]1[Hg][O]C(C)=O (stereo not drawn) ; retrieve measured growth.
**A:** 102

**Q:** Which growth is listed for Clc1ccc(COC(Cn2ccnc2)c2ccc(Cl)cc2Cl)cc1 (stereo not drawn) ?
**A:** 75.1

###

- System: SF-539 CNS
- method: NCI-60 one-dose screen, 48 h (100 = growth as untreated, 0 = no growth, -100 = all killed)
- conditions_used: 10 µM unless noted
- Procedure: Cells are grown in 96 well plates and exposed to the test compound for 48 hours. Compounds are tested at a single concentration, which is 10^-5 M for most compounds. The reported endpoint is percent growth (GI% or GIPRCNT), where numbers from 0 - 100% represent growth inhibition, and numbers from -100% - 0 represent cell death. For example, a value of 40 represents 60% growth inhibition. A value of 0 means no net growth occurred over the course of the experiment. […]
About 83,000 compounds went through this panel and 20% of them were active in at least one assay; those are over-represented in the sample as a whole.
attribute_measured: growth (%)
Provide the reading as a plain figure in %.

Take a look at these entries with their results.
COc1cc2c(cc1OCCCCn1c(-c3cccs3)nc3ccccc31)N=C[C@@H]1CCCN1C2=O: -25.3
CC(=O)Oc1ccccc1C(=O)NCCC[Se]C#N: -72.1
COP(=S)(N1CC1)N1CC1: 94.3
COc1cc2c(cc1OCc1ccccc1)C(CC(C)C)=[N+](C)CC2: 76.7
Nc1ncnc2n[nH]nc12: 86.8
COC(=O)[C@@H](C)C[C@H](Cc1cn(C)c2ccccc12)NC(=O)c1csc([C@@H](C[C@H](C(C)C)N(C)C(=O)[C@@H](NC(=O)[C@H]2CCCCN2C)C(C)C)OC(C)=O)n1: -8.57

Proceeding to the next compound to report its growth.
**Q:** Find the recorded growth belonging to CC[S][Hg][Cl] and report it.
**A:** 105

###

- Test system: HL-60(TB) leukemia
- method: NCI-60 one-dose screen, 48 h
- conditions_used: 10 µM unless noted
- Experimental: Growth inhibition of the HL-60(TB) human tumor cell line is measured as a screen for anti-cancer activity. Cells are grown in 96 well plates and exposed to the test compound for 48 hours. Compounds are tested at a single concentration, which is 10^-5 M for most compounds. The reported endpoint is percent growth (GI% or GIPRCNT), where numbers from 0 - 100% represent growth inhibition, and numbers from -100% - 0 represent cell death. For example, a value of 40 represents 60% growth inhibition. […]
Compounds without any hit were thinned out: in the full panel of roughly 83,000, 20% have a hit. Calls of active or inactive are those of the source. Rule for the calls: active = growth percent below 10; inactive = the rest.
Choose the fitting class; nothing outside active, inactive is accepted.

Please review the entries below; each comes with its answer.
COC(=O)[C@@H](C)C[C@H](Cc1ccc(F)cc1)NC(=O)c1csc([C@@H](C[C@H](C(C)C)N(C)C(=O)[C@@H](NC(=O)[C@H]2CCCCN2C)C(C)C)OC(C)=O)n1: active
COC(=O)[C@H](C[C@H](Cc1ccccc1)NC(=O)c1csc([C@@H](C[C@H](C(C)C)N(C)C(=O)[C@@H](NC(=O)[C@H]2CCCCN2C)C(C)C)OC(C)=O)n1)NC(=O)OCc1ccccc1: active
N/C(=N/N=C/c1ccncc1)N[N+](=O)[O-]: inactive

**Q:** Call for entry CCC1CC(O)c2c(O)c3c(c(O)c2C1O)C(=O)c1cccc(O)c1C3=O (centres undefined) (tested in a mixture with another compound) :
**A:** active

**Q:** Record request — test call for C=C1C(=O)O[C@H]2[C@H]1CC/C(COC(=O)C(=O)c1cn(Cc3ccccc3)c3ccccc13)=C\CC[C@@]1(C)O[C@@H]21
**A:** active

**Q:** For COP(=O)(OC)C(O)c1ccc(Cl)cc1 (centres undefined) , what call appears in the results of this test?
**A:** inactive

**Q:** Recorded test call requested for C#Cc1ccc2c(c1)C(c1ccccc1F)=NCC(=O)N2C
**A:** inactive

**Q:** What is the recorded call for this compound in the test? CN(C)CC(C(=O)Cc1ccccc1)c1ccccc1 (centres undefined)
**A:** inactive

**Q:** Please share the test call associated with CN[C@]1(c2ccccc2Cl)CCCC[C@H]1NCCCN1CCN(C)CC1 .
**A:** inactive
